Each recorded value in this set is attributed to PubChem BioAssay AID1963421.

# Test system: 519858-162-T-J1-PDC complex spheroid growth, % test/control
# test-name: Anticancer human tumor 519858-162-T-J1-PDC patient-derived colon adenocarcinoma cell line growth inhibition [Asc]
# test-settings: curve of first compound; second compound 0.03 µM
property-label: IC50

Prompt: Would you kindly share the measured IC50 for C#Cc1c(F)ccc2cc(O)cc(-c3ncc4c(N5CC6CCC(C5)N6)nc(OCC56CCCN5CC(F)C6)nc4c3F)c12 (stereo not given) + CCN1C(C(=O)NC23CCC(C(=O)O)(CC2)CC3)C(c2cccc(Cl)c2F)C2(C(=O)Nc3cc(Cl)ccc32)C12CCCCC2 ?
Response: > 10000 nM

Prompt: Entry O=C(c1ccc(F)c(F)c1Nc1ccc(I)cc1F)N1CC(O)([C@@H]2CCCCN2)C1 + CCN1C(C(=O)NC23CCC(C(=O)O)(CC2)CC3)C(c2cccc(Cl)c2F)C2(C(=O)Nc3cc(Cl)ccc32)C12CCCCC2 : reported IC50 = ?
Response: 130 nM

Prompt: Any idea what its IC50 is? The compound is Cn1ncnc1[C@H]1c2n[nH]c(=O)c3cc(F)cc(c23)N[C@@H]1c1ccc(F)cc1 + CCN1C(C(=O)NC23CCC(C(=O)O)(CC2)CC3)C(c2cccc(Cl)c2F)C2(C(=O)Nc3cc(Cl)ccc32)C12CCCCC2
Response: > 100 nM

Prompt: Report IC50 for NC(=O)C(=Cn1cnc(-c2cc(C(F)(F)F)cc(C(F)(F)F)c2)n1)c1cncnc1 + CCN1C(C(=O)NC23CCC(C(=O)O)(CC2)CC3)C(c2cccc(Cl)c2F)C2(C(=O)Nc3cc(Cl)ccc32)C12CCCCC2 please.
Response: > 300 nM

Prompt: Sample COc1c(OCCCN2CCOCC2)ccc2c3n(c(=NC(=O)c4cnc(N)nc4)nc12)CCN3 + CCN1C(C(=O)NC23CCC(C(=O)O)(CC2)CC3)C(c2cccc(Cl)c2F)C2(C(=O)Nc3cc(Cl)ccc32)C12CCCCC2 — what was its IC50?
Response: > 1000 nM

* * *

# System: 519858-162-T-J1-PDC complex spheroid growth, % test/control
# test-name: Anticancer human tumor 519858-162-T-J1-PDC cell line growth inhibition [Asc];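 note: seven day drug exposure begun three days after spheroid seeding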
# test-settings: second compound 0.01 µM; first compound 0.1 µM; stronger effect = lower value
# From the text: Multicellular complex tumor spheroid response to apoptosis pathway targeting inhibitors Alrizomadlin, Pelcitoclax, and Dasminapant in combination with a variety of drugs and investigational agents in selected tumor cell lines […] Compounds. […] If the clinical Cmax for an agent had not been determined, the highest concentration tested was 10 microM. […]
Threshold 80%: viability, T/C strictly smaller gives t, otherwise f.

Prompt: Lab log: compare recorded viability, T/C with 80%; is it strictly lower for CCN1CCN(Cc2ccc(Nc3ncc(F)c(-c4cc(F)c5nc(C)n(C(C)C)c5c4)n3)nc2)CC1 + CNC(C)C(=O)NC1CN(S(=O)(=O)c2cccc(S(=O)(=O)N3CCC4CCC(C(=O)NC(c5ccccc5)c5ccccc5)N4C(=O)C(NC(=O)C(C)NC)C3)c2)CCC2CCC(C(=O)NC(c3ccccc3)c3ccccc3)N2C1=O ?
Response: t

Prompt: Criterion: viability, T/C strictly below 80%. Is it met by O=C(c1cc(Cc2n[nH]c(=O)c3ccccc23)ccc1F)N1CCN(C(=O)C2CC2)CC1 + CNC(C)C(=O)NC1CN(S(=O)(=O)c2cccc(S(=O)(=O)N3CCC4CCC(C(=O)NC(c5ccccc5)c5ccccc5)N4C(=O)C(NC(=O)C(C)NC)C3)c2)CCC2CCC(C(=O)NC(c3ccccc3)c3ccccc3)N2C1=O ?
Response: f

Prompt: Is viability, T/C strictly under 80% for the entry COc1c(OCCCN2CCOCC2)ccc2c3n(c(=NC(=O)c4cnc(N)nc4)nc12)CCN3 + CNC(C)C(=O)NC1CN(S(=O)(=O)c2cccc(S(=O)(=O)N3CCC4CCC(C(=O)NC(c5ccccc5)c5ccccc5)N4C(=O)C(NC(=O)C(C)NC)C3)c2)CCC2CCC(C(=O)NC(c3ccccc3)c3ccccc3)N2C1=O ?
Response: t

Prompt: Confirm or reject: viability, T/C of C=CC(=O)N1CCN(c2nc(=O)n(-c3c(C)ccnc3C(C)C)c3nc(-c4c(O)cccc4F)c(F)cc23)C(C)C1 (centres undefined) + CNC(C)C(=O)NC1CN(S(=O)(=O)c2cccc(S(=O)(=O)N3CCC4CCC(C(=O)NC(c5ccccc5)c5ccccc5)N4C(=O)C(NC(=O)C(C)NC)C3)c2)CCC2CCC(C(=O)NC(c3ccccc3)c3ccccc3)N2C1=O lies strictly below 80%
Response: f

Prompt: Quick check: does C=C(F)C(=O)N1CCN(c2nc(OCC3CCCN3C)nc3c2CCN(c2cccc4cccc(Cl)c24)C3)CC1CC#N (centres undefined) + CNC(C)C(=O)NC1CN(S(=O)(=O)c2cccc(S(=O)(=O)N3CCC4CCC(C(=O)NC(c5ccccc5)c5ccccc5)N4C(=O)C(NC(=O)C(C)NC)C3)c2)CCC2CCC(C(=O)NC(c3ccccc3)c3ccccc3)N2C1=O have viability, T/C under 80%?
Response: f

Prompt: Is the reported viability, T/C for O=C(c1ccc(F)c(F)c1Nc1ccc(I)cc1F)N1CC(O)([C@@H]2CCCCN2)C1 + CNC(C)C(=O)NC1CN(S(=O)(=O)c2cccc(S(=O)(=O)N3CCC4CCC(C(=O)NC(c5ccccc5)c5ccccc5)N4C(=O)C(NC(=O)C(C)NC)C3)c2)CCC2CCC(C(=O)NC(c3ccccc3)c3ccccc3)N2C1=O strictly below 80%?
Response: f

Prompt: Answer whether the compound C#Cc1c(F)ccc2cc(O)cc(-c3ncc4c(N5CC6CCC(C5)N6)nc(OCC56CCCN5CC(F)C6)nc4c3F)c12 (centres undefined) + CNC(C)C(=O)NC1CN(S(=O)(=O)c2cccc(S(=O)(=O)N3CCC4CCC(C(=O)NC(c5ccccc5)c5ccccc5)N4C(=O)C(NC(=O)C(C)NC)C3)c2)CCC2CCC(C(=O)NC(c3ccccc3)c3ccccc3)N2C1=O has viability, T/C strictly less than 80%
Response: f

Prompt: Please check: viability, T/C for NC1CCC(NC2CC2c2ccccc2)CC1 (centres undefined) + CNC(C)C(=O)NC1CN(S(=O)(=O)c2cccc(S(=O)(=O)N3CCC4CCC(C(=O)NC(c5ccccc5)c5ccccc5)N4C(=O)C(NC(=O)C(C)NC)C3)c2)CCC2CCC(C(=O)NC(c3ccccc3)c3ccccc3)N2C1=O , strictly under 80% or not?
Response: f
